- STUDY SYSTEM: UniProtKB P50406
- Sequence (P50406 whole entry): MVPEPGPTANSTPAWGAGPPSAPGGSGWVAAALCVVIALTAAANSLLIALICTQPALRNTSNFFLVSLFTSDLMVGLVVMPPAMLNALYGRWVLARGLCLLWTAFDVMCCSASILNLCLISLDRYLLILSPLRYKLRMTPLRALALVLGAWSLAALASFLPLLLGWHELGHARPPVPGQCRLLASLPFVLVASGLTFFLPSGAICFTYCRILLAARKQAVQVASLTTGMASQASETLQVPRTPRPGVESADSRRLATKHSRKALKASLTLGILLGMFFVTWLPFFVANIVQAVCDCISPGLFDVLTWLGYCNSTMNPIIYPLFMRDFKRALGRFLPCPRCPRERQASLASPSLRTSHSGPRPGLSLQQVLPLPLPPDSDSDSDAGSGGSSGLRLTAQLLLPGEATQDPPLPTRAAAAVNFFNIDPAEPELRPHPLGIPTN
- EXPERIMENTAL CONDITIONS: Compound concentration 10 µM
- Description: PDSP Primary Binding target: HTR6 - Compounds are tested at 10 uM concentration, plate are incubated at room temperature in the dark for 90 minutes. Reaction are stopped by vacuum filtration onto 0.3% polyethyleneimine soaked filter mats using Filtermate harvester. Scintilation cocktail is then melted onto microwave-dried filters on a hot plate and the radio activity is counted in Microbia counter.
Where inhibition equals or exceeds 20%, the correct label is YES; where it does not, the label is NO.

Please review the following examples before continuing.
| ENTRY SMILES | QUALITATIVE LABEL |
| --- | --- |
| CCCCCNC(=N)N/N=C/c1c[nH]c2ccc(OC)cc12 | YES |
| N#Cc1c[nH]c2c(C(=O)N3CCN(CCc4ccc(F)cc4)CC3)cccc12 | YES |
| CCOC(=O)c1cc(C#N)c(N2CCC(C(=O)NS(=O)(=O)Cc3ccccc3)CC2)nc1C | NO |

Exercise: Item "Cc1nc(C(=O)N2CCC[C@H]2Cc2nnc(-c3ccccc3)o2)c(-c2ccccc2F)s1" with inhibition of 20% or above?
Solution: NO

Exercise: Now try "FC(F)(F)c1cccc(-c2noc(-c3cc(-c4ccccc4)c(C(F)(F)F)s3)n2)c1" .
Solution: NO

Exercise: Now try "Cc1cn2cc(CC(=O)N3CCC4(CC3)CN(Cc3ccc(-n5nccn5)cc3Cl)C4)nc2s1" .
Solution: NO

Exercise: Now try "N#Cc1c(O)nc(SCc2cccc(F)c2F)nc1C1CC1" .
Solution: NO

Exercise: Now try "COc1cccc(-c2c(C)n(Cc3c(F)cccc3C(F)(F)F)c(=O)n(C[C@H](NCCCC(=O)O)c3ccccc3)c2=O)c1F" .
Solution: NO

Exercise: Now try "COc1ccc(S(=O)(=O)N2c3ccc(Cl)cc3[C@](O)(c3ccccc3Cl)[C@@H]2C(=O)N2CCC[C@H]2C(N)=O)cc1OC" .
Solution: NO

---

- STUDY SYSTEM: UniProtKB P08908
- Sequence (P08908 whole entry): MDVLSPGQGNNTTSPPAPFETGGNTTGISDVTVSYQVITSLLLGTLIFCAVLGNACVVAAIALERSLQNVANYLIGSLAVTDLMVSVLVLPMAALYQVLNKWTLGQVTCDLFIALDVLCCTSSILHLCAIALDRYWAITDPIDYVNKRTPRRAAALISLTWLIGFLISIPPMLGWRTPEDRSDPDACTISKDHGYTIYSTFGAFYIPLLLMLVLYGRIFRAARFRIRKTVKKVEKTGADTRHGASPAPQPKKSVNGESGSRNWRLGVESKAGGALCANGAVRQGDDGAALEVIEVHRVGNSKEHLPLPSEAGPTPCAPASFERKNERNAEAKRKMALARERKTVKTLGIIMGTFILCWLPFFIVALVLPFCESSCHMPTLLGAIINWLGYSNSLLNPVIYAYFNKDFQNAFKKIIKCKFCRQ
- EXPERIMENTAL CONDITIONS: Compound concentration 10 µM; call rule not given here
Outcome (select one): TRUE (active), FALSE (inactive)

Please review the following examples before continuing.
| MOLECULE | QUALITATIVE LABEL |
| --- | --- |
| NC[C@@H]1O[C@H](C23CC4CC(CC(C4)C2)C3)Cc2c1ccc(O)c2O | FALSE |
| CCCn1c(=O)c2nc(C34CC5CC(CC3C5)C4)[nH]c2n(CCC)c1=O | FALSE |
| C[C@@H](NCCc1ccc(O)cc1)[C@@H](O)c1ccc(O)cc1 (relative stereo) | FALSE |
| O=C(O)c1cc(-c2ccc(C3CCNCC3)cc2)c2ccc(-c3ccc(C(F)(F)F)cc3)cc2c1 | TRUE |
| CC(C)(C)NC[C@H](O)COc1nsnc1N1CCOCC1 | FALSE |

Exercise: Record lookup: outcome of this test for "N#Cc1cccc(C(=O)Nc2cc(-c3ccccc3)nn2-c2ccccc2)c1" ?
Solution: FALSE

Exercise: Now try "COC(=O)C1=C(C)NC(C)=C(C(=O)OCCCN2CCC(c3ccccc3)(c3ccccc3)CC2)[C@H]1c1cccc([N+](=O)[O-])c1" .
Solution: TRUE

Exercise: Now try "CNC[C@H](O)c1cccc(O)c1" .
Solution: FALSE

Exercise: Now try "COc1ccc2[nH]cc(CCNC(C)=O)c2c1" .
Solution: FALSE

Exercise: Now try "c1nc(CC2CCNCC2)c[nH]1" .
Solution: FALSE

Exercise: Now try "Cc1cc([C@@H](C)Nc2cccc(-c3cc(C)c(C(=O)N[C@@H](C)C(=O)O)c(C)c3)c2)ccc1Cl" .
Solution: FALSE

Exercise: Now try "N#Cc1c(N)nc(SCC(N)=O)c(C#N)c1-c1ccc(OCC2CC2)cc1" .
Solution: FALSE
